The reported measurements were obtained from PubChem BioAssay (Tox21).

Target: Acetylcholinesterase (Homo sapiens) (UniProt P22303)
Sequence (P22303 whole entry, looked up): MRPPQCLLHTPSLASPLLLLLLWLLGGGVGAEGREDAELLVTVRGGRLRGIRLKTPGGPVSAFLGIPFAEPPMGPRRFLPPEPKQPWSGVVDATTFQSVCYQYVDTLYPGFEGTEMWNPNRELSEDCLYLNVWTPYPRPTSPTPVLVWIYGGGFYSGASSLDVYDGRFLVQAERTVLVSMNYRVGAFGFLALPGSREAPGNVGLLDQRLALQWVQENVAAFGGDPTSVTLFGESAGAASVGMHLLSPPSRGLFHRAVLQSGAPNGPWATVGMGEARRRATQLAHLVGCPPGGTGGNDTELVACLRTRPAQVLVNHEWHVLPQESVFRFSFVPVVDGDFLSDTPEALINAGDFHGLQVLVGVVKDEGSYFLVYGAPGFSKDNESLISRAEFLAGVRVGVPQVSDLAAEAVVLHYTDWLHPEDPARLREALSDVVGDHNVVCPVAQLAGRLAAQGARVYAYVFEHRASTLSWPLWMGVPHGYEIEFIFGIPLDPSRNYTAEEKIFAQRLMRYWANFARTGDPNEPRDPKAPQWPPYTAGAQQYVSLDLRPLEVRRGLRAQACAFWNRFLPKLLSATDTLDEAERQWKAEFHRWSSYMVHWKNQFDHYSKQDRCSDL
Assay: Acetylcholinesterase (AChE) small molecule antagonists: colormetric cell-based qHTS assay (AID 1347395); note: nearly all actives have a fitted effect of over 30% in size
Conditions: SH-SY5Y cells AChE activity, colorimetric (Ellman); series mostly up to 115 µM
Description: National Center for Advancing Translational Sciences [NCATS] Division of Preclinical Innovation [DPI] U.S. Environmental Protection Agency [EPA] National Institutes of Environmental Health Sciences [NIEHS] National Toxicology Program [NTP] U.S. Food and Drug Administration [FDA] Acetylcholinesterase (AChE) is the primary cholinesterase in the body that hydrolyzes a key neurotransmitter, acetylcholine. Inhibition of AChE activity can lead to neurotoxicity. […]
Records with an inconclusive call do not appear. Active and inactive are the calls of the source. Calls come from the whole dose curve.
// allowed return values: active, inactive

| molecule | assignedLabel |
| --- | --- |
| CC(=O)OC(C)(C)Cc1ccccc1 | inactive |
| CC(C)C(=O)OCCc1ccccc1 | inactive |
| CCCCC(CC)CNCC(CC)CCCC (configuration not stated) | inactive |
| OCC(CO)N[C@H]1C[C@](O)(CO)[C@@H](O)[C@H](O)[C@H]1O | inactive |

// query Each molecule tested received a call. Report the one for CC(C(O)c1ccccc1)N(C)CCOC(c1ccccc1)c1ccccc1 (configuration not stated) .
// result inactive

// query Each molecule tested received a call. Report the one for O=c1cc(-c2ccccc2)oc2ccc3ccccc3c12 .
// result inactive

// query Each molecule tested received a call. Report the one for CCC1CCCCC1 .
// result inactive

// query Each molecule tested received a call. Report the one for CCCCC/C=C\C/C=C\CCCCCCCC(=O)NC(C)c1ccccc1 (configuration not stated) .
// result inactive

// query Each molecule tested received a call. Report the one for CC(N=C(NC#N)Nc1ccncc1)C(C)(C)C (configuration not stated) .
// result inactive

// query Each molecule tested received a call. Report the one for CCCCCCCCCCCCCCCC[N+](C)(C)CCN(Cc1ccc(OC)cc1)c1ncccn1 .
// result inactive

// query Each molecule tested received a call. Report the one for COc1ccc(C(=O)c2ccc(OC)cc2O)c(O)c1 .
// result inactive

// query Each molecule tested received a call. Report the one for CC(S)C(=O)NCC(=O)O (configuration not stated) .
// result inactive

// query Each molecule tested received a call. Report the one for Oc1cccc(O)c1O .
// result inactive

// query Each molecule tested received a call. Report the one for Cc1ccc(NC(=O)c2ccc(CN3CCN(C)CC3)cc2)cc1Nc1nccc(-c2cccnc2)n1 .
// result inactive

// query Each molecule tested received a call. Report the one for c1ccc(C(O[C@@H]2CCCN(CCc3ccc4c(c3)OCO4)C2)c2ccccc2)cc1 .
// result inactive

// query Each molecule tested received a call. Report the one for COc1ccc(OC(=O)N(CC(=O)O)Cc2ccc(OCCc3nc(-c4ccccc4)oc3C)cc2)cc1 .
// result inactive

// query Each molecule tested received a call. Report the one for C=C(C)[C@@H]1CC[C@@H](C)C[C@@H]1O .
// result inactive

// query Each molecule tested received a call. Report the one for CC(C)COC(=O)COc1ccc(Cl)cc1Cl .
// result inactive

// query Each molecule tested received a call. Report the one for Cc1ccc2c(c1)OCC(=O)CO2 .
// result active

// query Each molecule tested received a call. Report the one for NC(=O)C1(N2CCCCC2)CCN(CCCN2c3ccccc3CCc3ccc(Cl)cc32)CC1 .
// result inactive

// query Each molecule tested received a call. Report the one for CCCCOC(=O)/C=C\C(=O)OCCCC .
// result inactive

// query Each molecule tested received a call. Report the one for C=CC(=O)[O-].C=CC(=O)[O-].[Zn+2] .
// result inactive

// query Each molecule tested received a call. Report the one for CCC(=O)CC .
// result inactive
